FYI, the data here is from ChEMBL document CHEMBL3217741.

# System: Influenza B virus
# test description: microbe, parasite or virus in culture
# setup conditions: B/Harbin/07/94, MDCK, 72 h
# Description: Antiviral activity against Influenza B virus (B/Harbin/07/94) infected in MDCK cells assessed as reduction of virus-induced cytopathic effect after 72 hrs by MTT assay
Field: EC50. Provide a value for each of the compounds that follow.
Field: numeric (nM). Do not append units.

Using the record for CC(=O)N[C@H]1[C@H]([C@H](OC(=O)NCCCCCn2cc(CCCCCc3cn(CCCCCNC(=O)O[C@@H]([C@@H]4OC(C(=O)O)=C[C@H](NC(=N)N)[C@H]4NC(C)=O)[C@H](O)CO)nn3)nn2)[C@H](O)CO)OC(C(=O)O)=C[C@@H]1NC(=N)N , report its EC50.
0.88

Given the entry CC(=O)N[C@H]1[C@H]([C@H](OC(=O)NCCCCCCCCc2cn(CCCCCCCNC(=O)O[C@@H]([C@@H]3OC(C(=O)O)=C[C@H](NC(=N)N)[C@H]3NC(C)=O)[C@H](O)CO)nn2)[C@H](O)CO)OC(C(=O)O)=C[C@@H]1NC(=N)N , report its measured EC50.
0.39

Quick one: EC50 for CC(=O)N[C@H]1[C@H]([C@H](OC(=O)NCCCCCCCn2cc(CCCCNC(=O)O[C@@H]([C@@H]3OC(C(=O)O)=C[C@H](NC(=N)N)[C@H]3NC(C)=O)[C@H](O)CO)nn2)[C@H](O)CO)OC(C(=O)O)=C[C@@H]1NC(=N)N ?
0.32

# input compound: CC(=O)N[C@H]1[C@H]([C@H](OC(=O)NCCCn2cc(CCNC(=O)O[C@@H]([C@@H]3OC(C(=O)O)=C[C@H](NC(=N)N)[C@H]3NC(C)=O)[C@H](O)CO)nn2)[C@H](O)CO)OC(C(=O)O)=C[C@@H]1NC(=N)N ; wanted: its EC50
0.51

====

# Test system: Influenza B virus
# test description: microbe, parasite or virus in culture
# setup conditions: B/Harbin/07/94, MDCK, 72 h
Kindly state pEC50 for each of the entries shown.
Remember the convention: pEC50 equals -log10 of concentration in molar.

What is its pEC50 for Influenza B virus? Entry: CC(=O)N[C@H]1[C@H]([C@H](OC(=O)NCCCn2cc(CCCc3cn(CCCNC(=O)O[C@@H]([C@@H]4OC(C(=O)O)=C[C@H](NC(=N)N)[C@H]4NC(C)=O)[C@H](O)CO)nn3)nn2)[C@H](O)CO)OC(C(=O)O)=C[C@@H]1NC(=N)N
9.19

Param readout = pEC50; param system = Influenza B virus; param query = CC(=O)N[C@H]1[C@H]([C@H](OC(=O)NCCCCc2cn(CCCNC(=O)O[C@@H]([C@@H]3OC(C(=O)O)=C[C@H](NC(=N)N)[C@H]3NC(C)=O)[C@H](O)CO)nn2)[C@H](O)CO)OC(C(=O)O)=C[C@@H]1NC(=N)N ; response: value
9.37

Item: CC(=O)N[C@H]1[C@H]([C@H](OC(=O)NCCCCCn2cc(CCCCNC(=O)O[C@@H]([C@@H]3OC(C(=O)O)=C[C@H](NC(=N)N)[C@H]3NC(C)=O)[C@H](O)CO)nn2)[C@H](O)CO)OC(C(=O)O)=C[C@@H]1NC(=N)N Test system: Influenza B virus Read-out: pEC50 Value: ?
9.10

Field: pEC50 (Influenza B virus). Entry: CCOC(=O)C1=C[C@@H](OC(CC)CC)[C@H](NC(C)=O)[C@@H](N)C1
6.23

Request: pEC50, test system Influenza B virus, entry CC(=O)N[C@H]1[C@H]([C@H](O)[C@H](O)CO)OC(C(=O)O)=C[C@@H]1NC(=N)N
6.83
